# Test system: RXRa homodimer (NR concentration 180 nM)
# EXPERIMENTAL DETAILS: PBM binding z-score (relative to random genomic background probes); higher = stronger binding; sequences stand for … in GC…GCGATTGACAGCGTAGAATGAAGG
I'd be grateful if you could share measured PBM binding z-score for these entries.

Short answer for TGTACAGGGTCAAAGGCCAGAGTACGAATGTCGA : PBM binding z-score was 6.85

Lab note: measured PBM binding z-score of CCTGCTAGGTCATGGTCATCTAATCTACAGTATG was 2.78

// PBM binding z-score value for ACTAGCAGGGCAAGGGTCACTCAAGATTAGTCCG : 4.53

Item: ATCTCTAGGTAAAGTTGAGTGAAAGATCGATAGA | PBM binding z-score: 0.495

Documented PBM binding z-score of CATACTAGGTCACGAAAGGTCAAAGTCGAATGAC : 8.69

Consider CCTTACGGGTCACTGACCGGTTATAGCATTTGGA . Its measured PBM binding z-score is 4.82
